- TARGET_OR_TEST_SYSTEM: Pyruvate kinase PKM (Homo sapiens) (UniProt P14618)
- Sequence (P14618 whole entry, looked up, canonical isoform): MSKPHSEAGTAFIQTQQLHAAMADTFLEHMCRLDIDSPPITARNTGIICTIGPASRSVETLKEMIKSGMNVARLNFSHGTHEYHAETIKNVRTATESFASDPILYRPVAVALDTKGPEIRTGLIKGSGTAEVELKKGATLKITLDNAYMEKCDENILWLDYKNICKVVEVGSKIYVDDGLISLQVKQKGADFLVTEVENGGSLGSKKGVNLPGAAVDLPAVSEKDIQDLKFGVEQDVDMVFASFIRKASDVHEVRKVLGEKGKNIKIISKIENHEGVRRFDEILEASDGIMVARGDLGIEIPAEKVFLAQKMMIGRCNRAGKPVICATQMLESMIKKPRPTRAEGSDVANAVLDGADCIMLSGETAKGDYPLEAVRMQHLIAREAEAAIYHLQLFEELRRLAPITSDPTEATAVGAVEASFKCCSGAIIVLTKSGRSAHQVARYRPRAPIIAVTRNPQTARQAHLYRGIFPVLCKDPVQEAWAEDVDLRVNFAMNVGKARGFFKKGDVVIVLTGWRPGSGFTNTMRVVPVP
- METHOD: Confirmation Concentration-Response Assay for Activators of Human Muscle isoform 2 Pyruvate Kinase
- CONDITION_DETAILS: purified hPK-M2, Kinase-Glo ATP luminescence, 1 h; series mostly up to 57.5 µM
Records with an inconclusive call do not appear. The source made the active and inactive calls. Calls follow the shape of the dose curve; as a rule, active = well fitted activation curve with a large enough effect; inconclusive = small, poorly fitted or top-dose-only effect; inactive = no such curve, though single readings can be large or run the other way.
ASSAY_READOUT: Potency

Worked cases, Potency given:
SMILES_DATA | TARGET_OR_TEST_SYSTEM | OBS_VALUE
Cc1cc2c(s1)c1cnn(Cc3ccc(F)cc3F)c(=O)c1n2C | Pyruvate kinase PKM (Homo sapiens) (UniProt P14618) | 25.3 nM (active)
Cc1cc2c(s1)c1cnn(Cc3cccc(F)c3F)c(=O)c1n2C | Pyruvate kinase PKM (Homo sapiens) (UniProt P14618) | 113 nM (active)
CC(=O)c1cc2c(s1)c1cnn(Cc3ccccc3F)c(=O)c1n2C | Pyruvate kinase PKM (Homo sapiens) (UniProt P14618) | 7.1 nM (active)

Now, please, on to the next compound.
Exercise: Report value only: Potency, Pyruvate kinase PKM (Homo sapiens) (UniProt P14618), "Cn1c2ccsc2c2cnn(Cc3ccccc3F)c(=O)c21"
Key: 318 nM (active)
